# Test Target: Tyrosyl-tRNA synthetase, putative (Trypanosoma cruzi (strain CL Brener))
# Protocol Text: Trypanosoma cruzi tyrosyl tRNA synthetase (TcYRS) _High Tyrosine SOP; note: in the data most compounds retested in dose-response had high values
# Type: functional
# Design: scale not given: direction of the effect not stated beside the values
# Condition Label: 30 µM
Observation Type: Percent Effect (%)
Give the number; % is assumed, so skip it.

Query block: Provide Percent Effect value for the following compound: Cc1occc1C(=O)N1CCC[C@]2(C[C@@H](OCc3ccncc3)CO2)C1
Result block: 7.29

Query block: Provide Percent Effect value for the following compound: Cc1nc(CN2C[C@@H]3CN(C(=O)c4ccnnc4)C[C@@H]3C2=O)cs1
Result block: 3.24

Query block: Provide Percent Effect value for the following compound: Cc1nc(C2CCCN(C(=O)c3ccc(Cn4cccn4)o3)C2)no1 (stereo unspecified)
Result block: 3.88

Query block: Provide Percent Effect value for the following compound: CCc1nnc2n1CCN(C(=O)c1csc(-c3cnn(C)c3)n1)C2
Result block: 3.16

Query block: Provide Percent Effect value for the following compound: Cc1cc(S(=O)(=O)N2CCCc3cc(F)cc(F)c32)sc1C(=O)O
Result block: -14.8

Query block: Provide Percent Effect value for the following compound: Cc1cccc(N2CC[C@@H]3CN(C(=O)c4ccco4)CCO[C@@H]3C2)n1
Result block: 7.45

Query block: Provide Percent Effect value for the following compound: O=C1COC2(CCN(Cc3ccccn3)CC2)CN1CC1CC1
Result block: 1.06

Query block: Provide Percent Effect value for the following compound: O=C(c1ccno1)N1CC[C@@H]2O[C@@H](COCCN3CCCC3)CC[C@@H]21
Result block: 5.41

Query block: Provide Percent Effect value for the following compound: Cc1ccc(C(=O)N2CCN(C(=O)Nc3ccccn3)CC2)o1
Result block: 0

Query block: Provide Percent Effect value for the following compound: COc1ccc(C(=O)N2C[C@@H](C(=O)O)[C@H](c3ccccc3C)C2)c(O)c1
Result block: 6.45

Query block: Provide Percent Effect value for the following compound: CN(CCN1CCCCC1)C(=O)c1cc(CN2CCOCC2)on1
Result block: 7.53

* * *

# Test Target: Ubiquitin-activating enzyme e1, putative (Leishmania donovani (strain BPK282A1)) (UniProt E9BSI1)
# Sequence (E9BSI1 as listed by the source): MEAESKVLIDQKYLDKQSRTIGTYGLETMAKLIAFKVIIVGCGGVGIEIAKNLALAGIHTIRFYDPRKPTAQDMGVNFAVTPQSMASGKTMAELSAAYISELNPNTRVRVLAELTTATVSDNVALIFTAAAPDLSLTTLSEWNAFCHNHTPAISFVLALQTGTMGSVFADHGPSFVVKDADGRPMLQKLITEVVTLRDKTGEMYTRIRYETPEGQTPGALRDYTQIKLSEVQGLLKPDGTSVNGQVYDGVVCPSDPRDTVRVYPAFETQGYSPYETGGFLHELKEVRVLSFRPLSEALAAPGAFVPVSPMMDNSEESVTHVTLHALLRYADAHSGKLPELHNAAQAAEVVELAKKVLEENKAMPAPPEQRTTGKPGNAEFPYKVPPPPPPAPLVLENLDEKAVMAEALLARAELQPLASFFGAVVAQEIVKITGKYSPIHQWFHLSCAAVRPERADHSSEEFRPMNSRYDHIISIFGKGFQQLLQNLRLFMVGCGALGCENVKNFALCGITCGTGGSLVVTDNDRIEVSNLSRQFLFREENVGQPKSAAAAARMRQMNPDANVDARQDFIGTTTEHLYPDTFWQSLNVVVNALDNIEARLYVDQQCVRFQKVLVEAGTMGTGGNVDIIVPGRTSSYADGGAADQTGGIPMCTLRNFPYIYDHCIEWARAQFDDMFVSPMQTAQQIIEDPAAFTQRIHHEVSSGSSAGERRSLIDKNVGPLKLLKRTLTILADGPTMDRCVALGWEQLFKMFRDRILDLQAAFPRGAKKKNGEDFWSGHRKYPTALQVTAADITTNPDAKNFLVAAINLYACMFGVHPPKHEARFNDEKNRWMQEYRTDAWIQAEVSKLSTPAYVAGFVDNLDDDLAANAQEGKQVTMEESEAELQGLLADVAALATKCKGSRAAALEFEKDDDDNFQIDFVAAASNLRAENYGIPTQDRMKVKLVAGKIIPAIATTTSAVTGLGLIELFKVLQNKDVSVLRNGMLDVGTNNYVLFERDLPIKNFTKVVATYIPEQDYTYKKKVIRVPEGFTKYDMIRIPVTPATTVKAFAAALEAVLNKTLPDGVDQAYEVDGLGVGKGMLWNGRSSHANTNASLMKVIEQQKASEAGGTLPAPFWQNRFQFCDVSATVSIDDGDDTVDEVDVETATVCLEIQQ
# Protocol Text: Leishmania donovani Ubiquitin Activating Enzyme (LdE1)
# Format: functional
# Parameters: scale not given: direction of the effect not stated beside the values
# Condition Label: 30 µM
Potency and affinity values are given separately.
Label scheme, based on Percent Effect: lower segment = under 10%, middle segment = from 10% up to 20%, upper segment = 20% and over

Query block: Returns: class label. Input: COc1ccc(CNC(C)c2cccc(Cl)c2)c(OC)c1OC (configuration not stated)
Result block: middle segment

Query block: Returns: class label. Input: CC(=O)N(Cc1ncc(C)o1)C1CCN(Cc2noc(C)n2)C1 (configuration not stated)
Result block: upper segment

Query block: Returns: class label. Input: COCC1CCCN(C(=O)c2cc(Cn3ccc4ccccc43)[nH]n2)C1 (configuration not stated)
Result block: lower segment

Query block: Returns: class label. Input: CN(Cc1cccc(F)c1)C1CCN(CCc2ccccn2)CC1
Result block: upper segment

Query block: Returns: class label. Input: COCc1nc(N(C)C)ncc1C(=O)Nc1ccn(C)n1
Result block: middle segment

Query block: Returns: class label. Input: CCOc1cc(F)ccc1NS(=O)(=O)c1cc(C)c(C(=O)O)s1
Result block: lower segment

Query block: Returns: class label. Input: O=C(NCC1CC1)[C@H]1CC[C@@H]2[C@@H](CCN2Cc2ccoc2)O1
Result block: middle segment

Query block: Returns: class label. Input: Cc1ccc(-c2nc(CNCCn3cccn3)cs2)o1
Result block: lower segment

Query block: Returns: class label. Input: Cc1cnn(CCNCc2nc(-c3ccccc3Cl)no2)c1
Result block: middle segment

Query block: Returns: class label. Input: O=C(NCCN1CCNCC1)c1c(O)c2ccccc2[nH]c1=O
Result block: middle segment

Query block: Returns: class label. Input: CN(C)C(=O)CNC(=O)c1ccc(Cl)cc1F
Result block: upper segment

Query block: Returns: class label. Input: Cc1cc(-c2cnc(NC3CC3)nc2-c2ccc(C)o2)on1
Result block: middle segment
